Below: a set of entries, each annotated with reported normalized growth.
# measurement description: chemical genetic growth profiling, strain panel (AID 1159580);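 further: tested at 20 µM; growth read once vehicle control cultures reached saturation at 30 °C; 1 = growth at the plate median or of vehicle wells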
# run conditions: S. cerevisiae deletion strains, growth OD, locus YOR290C, strain snf2, stronger effect = lower value
Screen size: about 5,500 compounds; about 2,000 (36%) were called active. About 18% were inconclusive and are not listed. The list shows a part of the results.

As a guide, the following entries are already answered.
Param item = O=C(O[C@@H]1Cc2c(O)cc(O)cc2O[C@@H]1c1cc(O)c(=O)c2c(O)c(O)cc([C@H]3Oc4cc(O)cc(O)c4C[C@H]3OC(=O)c3cc(O)c(O)c(O)c3)c2c1)c1cc(O)c(O)c(O)c1 ; retrieve measured normalized growth.
0.496 (active)

Which measured normalized growth value corresponds to O=C(OC1Cc2c(O)cc(O)cc2OC1c1cc(=O)c(O)c2c(O)c(O)cc(C3Oc4cc(O)cc(O)c4CC3O)c2c1)c1cc(O)c(O)c(O)c1 (centres undefined) ?
0.827 (active)

Fill blank: measured normalized growth of the compound CC(=O)O[C@]1(C(C)=O)CCC2C3C=C(Cl)C4=CC(=O)[C@@H]5C[C@@H]5[C@]4(C)C3CC[C@@]21C (some centres undefined) is ____.
0.995 (inactive)

---
Can you share its normalized growth? I mean this compound: CCOC(=O)c1c(C)cc(O)cc1O
0.88 (inactive)
